- assayed-system: Elastase from human neutrophils (Homo sapiens, UniProt P08246)
- Sequence (P08246 30-267): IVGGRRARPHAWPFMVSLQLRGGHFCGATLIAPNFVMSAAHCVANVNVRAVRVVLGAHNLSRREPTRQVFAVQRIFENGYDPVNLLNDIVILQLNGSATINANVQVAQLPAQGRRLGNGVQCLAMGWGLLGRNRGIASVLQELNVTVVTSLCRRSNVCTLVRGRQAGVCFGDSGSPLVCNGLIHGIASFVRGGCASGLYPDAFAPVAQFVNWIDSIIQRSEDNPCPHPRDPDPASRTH
- method-summary: Enzymatic assay, elastase
- stated-conditions: Elastase IC50
Where a SMILES comes first, the peptide text is derived from it.
measurement-name: IC50

Give IC50 for the following compound: CC[C@@H](C)[C@H]1NC(=O)[C@H](CO)NC(=O)[C@@H]2CSSC[C@H](NC(=O)[C@H](Cc3ccccc3)NC(=O)[C@@H]3CCCN3C1=O)C(=O)N[C@@H]([C@@H](C)O)C(=O)N[C@@H](CCCCN)C(=O)N[C@@H](CO)C(=O)N[C@@H](CC(=O)O)C(=O)N1CCC[C@H]1C(=O)N1CCC[C@H]1C(=O)N[C@@H]([C@@H](C)CC)C(=O)N2 [Ex. 50] (HELM PEPTIDE1{F.C.T.K.S.D.P.P.I.C.S.[dI].P}$PEPTIDE1,PEPTIDE1,2:R3-10:R3|PEPTIDE1,PEPTIDE1,1:R1-13:R2$$$V2.0)
> 100 µM

Attention now turns to another entry.
Give IC50 for the following compound: CC[C@H](C)[C@@H]1NC(=O)[C@@H]2CCCN2C(=O)[C@@H]2CCCN2C(=O)[C@H](CC(=O)O)NC(=O)[C@H](CO)NC(=O)[C@H](CCCCN)NC(=O)[C@H]([C@@H](C)O)NC(=O)[C@@H]2CSSC[C@H](NC1=O)C(=O)N[C@@H](CO)C(=O)N1CCC[C@@H]1C(=O)N[C@@H](CC(=O)O)C(=O)N[C@@H](Cc1ccccc1)C(=O)N2 [Ex. 47] (HELM PEPTIDE1{F.C.T.K.S.D.P.P.I.C.S.[dP].D}$PEPTIDE1,PEPTIDE1,2:R3-10:R3|PEPTIDE1,PEPTIDE1,1:R1-13:R2$$$V2.0)
> 10 µM

###

Measured IC50, listed per entry.
- assayed-system: CathepsinG, from human neutrophils (Homo sapiens, UniProt P08311)
- Sequence (P08311 21-244): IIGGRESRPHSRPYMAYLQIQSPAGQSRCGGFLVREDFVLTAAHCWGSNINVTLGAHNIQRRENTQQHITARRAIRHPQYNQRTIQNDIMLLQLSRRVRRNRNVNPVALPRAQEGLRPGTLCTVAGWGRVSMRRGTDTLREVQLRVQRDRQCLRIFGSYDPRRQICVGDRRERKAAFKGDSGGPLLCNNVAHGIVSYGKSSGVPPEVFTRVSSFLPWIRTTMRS
- method-summary: Enzymatic assay, cathepsin G
- stated-conditions: Cathepsin G IC50
Where a SMILES comes first, the peptide text is derived from it.
State just the number; it will be interpreted in µM.

Give IC50 for this entry on CathepsinG, from human neutrophils (Homo sapiens, UniProt P08311): CCCC[C@@H]1NC(=O)[C@@H]2CCCN2C(=O)[C@H]2CCCN2C(=O)[C@H](Cc2ccccc2)NC(=O)[C@@H]2CSSC[C@H](NC1=O)C(=O)N[C@@H]([C@@H](C)O)C(=O)N[C@@H](C)C(=O)N[C@@H](CO)C(=O)N[C@@H]([C@@H](C)CC)C(=O)N1CCC[C@H]1C(=O)N1CCC[C@H]1C(=O)N[C@@H](CCC(N)=O)C(=O)N2 [Ex. 90] (HELM PEPTIDE1{[Nle].C.T.A.S.I.P.P.Q.C.F.[dP].P}$PEPTIDE1,PEPTIDE1,2:R3-10:R3|PEPTIDE1,PEPTIDE1,1:R1-13:R2$$$V2.0)
67

---
Give IC50 for this entry on CathepsinG, from human neutrophils (Homo sapiens, UniProt P08311): CC[C@H](C)[C@@H]1NC(=O)[C@@H]2CCCN2C(=O)[C@H]2CCCN2C(=O)[C@H](CCCNC(=N)N)NC(=O)[C@@H]2CSSC[C@H](NC1=O)C(=O)N[C@@H]([C@@H](C)O)C(=O)N[C@@H](CCCCN)C(=O)N[C@@H](CO)C(=O)N[C@@H](CC(C)C)C(=O)N1CCC[C@H]1C(=O)N1CCC[C@H]1C(=O)N[C@@H](Cc1c[nH]cn1)C(=O)N2 [Ex. 187] (HELM PEPTIDE1{I.C.T.K.S.L.P.P.H.C.R.[dP].P}$PEPTIDE1,PEPTIDE1,2:R3-10:R3|PEPTIDE1,PEPTIDE1,1:R1-13:R2$$$V2.0)
0.158
